Target: T1, mouse IL-25 expressed with a C-terminal myc-myc-hexahistidine tag (mouse)
T1 construct: also called Mouse IL-25-MMH; mIL-25-MMH
T1 chain: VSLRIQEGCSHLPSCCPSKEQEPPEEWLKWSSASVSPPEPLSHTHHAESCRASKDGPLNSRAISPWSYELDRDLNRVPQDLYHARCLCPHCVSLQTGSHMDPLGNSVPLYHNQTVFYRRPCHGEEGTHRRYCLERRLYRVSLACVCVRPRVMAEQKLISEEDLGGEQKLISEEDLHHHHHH
Assay: SPR Biacore, antibody captured, 37C;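 further: Real-time sensorgrams of IL-25-MMH binding to purified anti-IL-25 antibodies, rate constants obtained by fitting a 1:1 binding model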
measurement name: kon (M⁻¹ s⁻¹)
Reply numerically in M⁻¹ s⁻¹, unit not repeated.

H4H10863P (antibody, human IgG4, V domains shown, H4H prefix = human IgG4 Fc) VH: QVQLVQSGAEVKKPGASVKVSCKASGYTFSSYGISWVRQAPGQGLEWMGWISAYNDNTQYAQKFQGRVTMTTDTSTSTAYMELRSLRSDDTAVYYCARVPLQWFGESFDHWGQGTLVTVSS VL: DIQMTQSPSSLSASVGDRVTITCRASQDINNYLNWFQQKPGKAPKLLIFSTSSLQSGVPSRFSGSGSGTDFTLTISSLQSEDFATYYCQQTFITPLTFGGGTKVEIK: 134000
H4H10876P (antibody, human IgG4, V domains shown, H4H prefix = human IgG4 Fc) VH: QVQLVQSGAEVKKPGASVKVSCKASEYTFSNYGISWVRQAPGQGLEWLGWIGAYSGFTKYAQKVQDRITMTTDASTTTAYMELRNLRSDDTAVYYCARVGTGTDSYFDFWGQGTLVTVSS VL: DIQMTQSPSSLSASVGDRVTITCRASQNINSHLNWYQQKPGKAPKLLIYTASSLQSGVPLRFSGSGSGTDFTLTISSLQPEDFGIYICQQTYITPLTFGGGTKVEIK: 369000
H4H10871P (antibody, human IgG4, V domains shown, H4H prefix = human IgG4 Fc) VH: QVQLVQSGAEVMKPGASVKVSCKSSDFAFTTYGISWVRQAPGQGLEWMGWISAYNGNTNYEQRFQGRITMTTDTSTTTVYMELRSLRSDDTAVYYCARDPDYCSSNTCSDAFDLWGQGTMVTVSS VL: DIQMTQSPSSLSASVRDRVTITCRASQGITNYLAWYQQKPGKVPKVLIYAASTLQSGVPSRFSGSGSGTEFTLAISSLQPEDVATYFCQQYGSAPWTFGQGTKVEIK: 322000

The binder listed as H4H10897P (antibody, human IgG4, V domains shown, H4H prefix = human IgG4 Fc) VH: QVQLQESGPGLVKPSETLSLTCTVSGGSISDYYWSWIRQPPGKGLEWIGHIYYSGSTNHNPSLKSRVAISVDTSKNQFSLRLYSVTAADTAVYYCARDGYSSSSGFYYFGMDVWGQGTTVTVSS VL: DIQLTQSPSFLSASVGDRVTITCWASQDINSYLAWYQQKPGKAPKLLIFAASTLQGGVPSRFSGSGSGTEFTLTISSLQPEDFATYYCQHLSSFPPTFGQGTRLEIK shows kon equal to 177000

The binder listed as H4H10907P (antibody, human IgG4, V domains shown, H4H prefix = human IgG4 Fc) VH: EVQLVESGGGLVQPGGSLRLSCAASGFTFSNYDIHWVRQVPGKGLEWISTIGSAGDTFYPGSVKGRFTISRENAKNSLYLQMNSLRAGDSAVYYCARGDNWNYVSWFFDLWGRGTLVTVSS VL: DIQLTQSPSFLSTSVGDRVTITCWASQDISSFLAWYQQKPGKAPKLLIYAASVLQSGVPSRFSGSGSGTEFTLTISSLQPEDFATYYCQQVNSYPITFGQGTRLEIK shows kon equal to 275000

The binder listed as H4H10905P (antibody, human IgG4, V domains shown, H4H prefix = human IgG4 Fc) VH: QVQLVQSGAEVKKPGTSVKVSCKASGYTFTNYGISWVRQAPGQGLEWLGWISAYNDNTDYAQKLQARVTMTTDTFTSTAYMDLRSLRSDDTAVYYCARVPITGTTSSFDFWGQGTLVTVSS VL: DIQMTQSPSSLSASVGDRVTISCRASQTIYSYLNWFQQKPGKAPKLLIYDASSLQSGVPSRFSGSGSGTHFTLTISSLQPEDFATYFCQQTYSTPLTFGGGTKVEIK shows kon equal to 403000
